# Test system: Candida albicans
# test: Antimicrobial activity against Candida albicans SC5314 after 24 hrs by broth microdilution method
# Type: functional
# applied conditions: SC5314, 24 h
For each record, write down the corresponding MIC80.

response.value for CC(=O)N1CCN(c2ccc(OCC3COC(Cn4ccnc4)(c4ccc(Cl)cc4Cl)O3)cc2)CC1 (stereo unspecified) (field: MIC80) = 4 µg/mL

Recorded result, Cc1ccc(-c2nnc(SCCCN3CCN(CC(O)(Cn4cncn4)c4ccc(F)cc4F)CC3)o2)cc1 (stereo unspecified) , MIC80: 0.25 µg/mL

GET /value?item= CCC(C)n1ncn(-c2ccc(N3CCN(c4ccc(OCC5COC(Cn6cncn6)(c6ccc(Cl)cc6Cl)O5)cc4)CC3)cc2)c1=O (stereo unspecified) &field=MIC80 returns 0.25 µg/mL

Note to self: MIC80 recorded for OC(CN1CCN(CCCSc2nnc(-c3cccc(Cl)c3)o2)CC1)(Cn1cncn1)c1ccc(F)cc1F (stereo unspecified) was 0.0039 µg/mL

MIC80 reading for O=[N+]([O-])c1ccc(-c2nnc(SCCCN3CCN(CC(O)(Cn4cncn4)c4ccc(F)cc4F)CC3)o2)cc1 (stereo unspecified) : 0.25 µg/mL

Field MIC80 (entry OC(CN1CCN(CCCSc2nnc(-c3cccc(Br)c3)o2)CC1)(Cn1cncn1)c1ccc(F)cc1F (stereo unspecified) ) reads 0.0625 µg/mL
